test_summary: HSF-1 activators, primary screen, NIH3T3-HGL cells, MG132 stress, luminescence, single point (AID 504408);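 further: 0% = median of the neutral control wells and 100% = twice that signal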
run_conditions: NIH3T3-HGL HSF-1 luciferase reporter, MG132, 8 h; at 9 µM; active compounds read high; 100% = twice DMSO control signal
The campaign covered roughly 300,000 compounds. About 5,200 (1.7%) were called active. The entries come from a sample that favours actives as a whole.
Hi, to clarify the labels: t covers activation from 10% upward, f covers anything below 10%.

compound	class_assignment
O=C(NCCNc1ccc([N+](=O)[O-])cc1Cl)c1ccccc1F	t
Cc1ccc(N2CCN(c3ccc([N+](=O)[O-])cn3)CC2)c(C)c1	t
CCN(CC(=O)Nc1c(F)cccc1F)C(=O)CN1c2cccc3cccc(c23)S1(=O)=O	f
O=C(COc1cccc2c1CCNC2=O)NC1CCCCC1	f
Cc1cc(=O)[nH]c(SCC(=O)Nc2ccc(Br)cc2)n1	f
CC(=O)Nc1ccc(N2C(=O)C3C4C=CC(CC4)C3C2=O)cc1 (stereo not given)	f
O=C(NCCNc1ccccc1[N+](=O)[O-])c1ccccc1F	t
CCc1ccccc1N1C(=O)C2C3CC(=O)C(c4ccccc43)C2C1=O (stereo not given)	f
Cc1ccc(-n2c(C)cc(/C=N/Nc3ccc([N+](=O)[O-])cn3)c2C)c(C)c1	t
Cc1cc(/C=N/Nc2ccc([N+](=O)[O-])cn2)c(C)n1-c1cccc(C(=O)O)c1	f

====

test_summary: HSF-1 activators, primary screen, NIH3T3-HGL cells, MG132 stress, luminescence, single point (AID 504408);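 further: 0% = median of the neutral control wells and 100% = twice that signal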
run_conditions: NIH3T3-HGL HSF-1 luciferase reporter, MG132, 8 h; at 9 µM; active compounds read high; 100% = twice DMSO control signal
The whole screen tested about 300,000 compounds, of which about 5,200 (1.7%) were called active. The full list was thinned out, with actives kept by preference.

compound	activation [%]
c1ccc2[nH]c(-c3nc4ccccc4[nH]3)nc2c1	77.8
Cc1ccc(C(=O)NNC(=O)c2ccncc2)cc1S(=O)(=O)N1CCCCC1	-9.07
CC(C)Nc1nnc(SC(C)C(=O)N(C)C2CCCCC2)s1 (configuration not stated)	7.73
Cc1cc2nc3n(c2cc1C)CC1CC(C(=O)NCCC(C)C)N(C)C31 (configuration not stated)	11.4
Cc1ccc(C(=O)CSc2nnc(Cn3nnc4ccccc43)n2C)cc1	43.4
COc1ccc(C(CNC(=O)c2cccc(NS(=O)(=O)c3ccc(C)c(F)c3)c2)N2CCCC2)cc1 (configuration not stated)	-2.57
Cc1ccc(-c2nc3ccccc3[nH]2)cc1N	36.7
COc1ccc(CNC(=O)C(=O)N2CCC3(CC2)OCCN3S(=O)(=O)c2ccc(C)cc2)cc1	2.08
CNc1nc(-c2ccccc2)cc(-c2ccccc2)n1	74.1
COc1ccc(C(=O)NC(=S)N2CCCCC2c2cccnc2)cc1OC (configuration not stated)	60.1
S=c1[nH]c(-c2cccs2)cn1-c1ccccc1	33.3
O=C(CSc1n[nH]c(-c2cccs2)n1)N1CCCCC1	-14
Nc1ccccc1/C=N\N=C/c1ccccc1N	1.94
CC1CCC(NC(=O)C2c3ccccc3C(=O)N2Cc2ccc3c(c2)OCO3)CC1 (configuration not stated)	-8.55
OC(c1nc2ccccc2[nH]1)C(O)C(O)C(O)c1nc2ccccc2[nH]1 (configuration not stated)	1.21
COc1ccc(-n2c(-c3ccc(OC)c(OC)c3)n[nH]c2=S)cc1	3.03
Cc1cc(NC(=O)C(C)SCC(=O)Nc2ccccc2N2CCCCC2)no1 (configuration not stated)	10.3

Value source: PubChem BioAssay AID504408
